- ASSAY_TEXT: qHTS assay to identify small molecule agonists of the androgen receptor (AR) signaling pathway in the presence of an antagonist - cell viability counter screen (AID 1259379);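 also: MDA-kb2 human breast cancer cells carrying an MMTV luciferase reporter; nearly all actives have a fitted effect of over 25% in size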
- CONDITION_SET: MDA-kb2 viability, CellTiter-Fluor, 16 h; series mostly up to 92.4 µM
Inconclusive results are not listed. Calls of active or inactive are those of the source. Calls follow the shape of the dose curve; as a rule, active = well fitted cell-killing curve with a large enough effect in the repeat runs; inconclusive = weak or mixed curves, or effect the other way; inactive = flat fitted curve, though single readings scatter.
Pick one: 1.0 (active), 0.0 (inactive)

COMPOUND | LABEL
Oc1cc(O)c(Cl)cc1Cl | 0.0
CC1=C(C=O)C(C)(C)CCC1 | 0.0

stdin: Answer briefly: the call reported for CC1=NN(c2ccc(C(=O)O)cc2)C(=O)C1 in this assay.
stdout: 0.0

stdin: Answer briefly: the call reported for CCOC(=O)[C@@H](C)Oc1ccc(Oc2nc3ccc(Cl)cc3o2)cc1 in this assay.
stdout: 0.0

stdin: Answer briefly: the call reported for CC(C)OCC1CO1 (centres undefined) in this assay.
stdout: 0.0

stdin: Answer briefly: the call reported for CO[C@@]12[C@H](COC(N)=O)C3=C(C(=O)C(C)=C(N)C3=O)N1C[C@@H]1N[C@@H]12 in this assay.
stdout: 0.0

stdin: Answer briefly: the call reported for COCCOC(=O)C1=C(C)NC(C)=C(C(=O)OC/C=C/c2ccccc2)C1c1cccc([N+](=O)[O-])c1 (centres undefined) in this assay.
stdout: 0.0

stdin: Answer briefly: the call reported for O=C(CCCN1CCN(c2ccc(F)cc2)CC1)NC1c2ccccc2CSc2ccccc21 (centres undefined) in this assay.
stdout: 0.0

stdin: Answer briefly: the call reported for CCCCCCCCCCCC[N+](C)(C)CC(=O)[O-] in this assay.
stdout: 0.0

stdin: Answer briefly: the call reported for CCN(CC)CCNC(=O)c1ccc(NC(C)=O)cc1 in this assay.
stdout: 0.0

stdin: Answer briefly: the call reported for O=C(O)C(Cc1cc(I)c(O)c(I)c1)c1ccccc1 (centres undefined) in this assay.
stdout: 0.0

stdin: Answer briefly: the call reported for O=C(O)c1ccccc1NCCc1ccccc1 in this assay.
stdout: 0.0
